Origin of values: patent US10023539B2

targetDesc: SMYD2 (Homo sapiens (Human))
assaySummary: In Cell Western (ICW) cell-based assay for detection of SMYD2 methylation activity
conditionDescription: SMYD2 overexpressing KYSE-150 cells, 72 h treatment, p53K370me1 signal; read-out: IC50 [mol/l] (ICW assay)
quantity: pIC50
One number for each entry, as −log10 of the molar value.

// query Using known records, supply pIC50 for CCN(C(=O)CO)C1CN(/C(=N\C#N)Nc2ccc(Cl)c(OC(F)F)c2)N=C1c1ccc(Cl)c(Cl)c1 (racemic)
// result 6.42

====

targetDesc: SMYD2 (Homo sapiens (Human), UniProt Q9NRG4)
Sequence (Q9NRG4 whole entry): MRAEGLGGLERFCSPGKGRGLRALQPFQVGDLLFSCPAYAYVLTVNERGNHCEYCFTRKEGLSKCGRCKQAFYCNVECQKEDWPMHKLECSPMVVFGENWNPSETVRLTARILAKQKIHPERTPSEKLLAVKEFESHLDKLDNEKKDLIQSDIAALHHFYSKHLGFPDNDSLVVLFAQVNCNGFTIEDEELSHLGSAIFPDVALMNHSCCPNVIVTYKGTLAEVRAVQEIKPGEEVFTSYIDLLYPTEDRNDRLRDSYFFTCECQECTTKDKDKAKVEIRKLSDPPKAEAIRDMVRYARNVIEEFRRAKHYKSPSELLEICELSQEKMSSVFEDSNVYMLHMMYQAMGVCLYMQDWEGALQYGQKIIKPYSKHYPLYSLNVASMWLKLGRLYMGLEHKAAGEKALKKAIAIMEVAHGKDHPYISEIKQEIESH
assaySummary: Scintillation Proximity Assay (SPA) for detection of SMYD2 enzymatic inhibition
Assay type: biochemical
conditionDescription: methylation of biotinylated p53 Peptide, 3H-SAM, full length SMYD2; read-out: IC50 [mol/l] (SPA Assay)
Field: pIC50. Provide a value for each of the molecules that follow.
Give bare numbers, as −log10 of the molar value.

Recorded pIC50, per entry:
| molecule | pIC50 |
| --- | --- |
| CCN(C(=O)CN)C1CN(/C(=N\C#N)Nc2cccc(OCCN(C)C)c2)N=C1c1ccc(Cl)c(Cl)c1 (racemic) | 7.23 |
| CCN(C(=O)CO)C1CN(/C(=N\C#N)Nc2cc(F)cc(OC(F)F)c2)N=C1c1ccc(Cl)c(Cl)c1 (racemic) [Example 24] | 7.20 |
| CCN(C(=O)CO)C1CN(/C(=N\C#N)Nc2ccc(Cl)c(OC(F)F)c2)N=C1c1ccc(Cl)c(Cl)c1 (single isomer, unassigned) [Example 11.2] | 5.53 |

Your task in this section: give pIC50 for each listed record.
1. CCN(C(=O)CO)C1CN(/C(=N\C#N)Nc2cc(F)cc(OC(F)F)c2)N=C1c1ccc(Cl)c(Cl)c1 (single isomer, unassigned) [Example 24.1]
2. CCN(C(=O)CO)C1CN(/C(=N\C#N)Nc2cccc(OC(F)(F)F)c2F)N=C1c1ccc(Cl)c(Cl)c1 (single isomer, unassigned) [Example 12.1]
3. CCN(C(=O)CO)C1CN(/C(=N\C#N)Nc2cccc(OC(F)(F)F)c2)N=C1c1ccc(Cl)c(F)c1 (racemic)
4. CCN(C(=O)CO)C1CN(/C(=N\C#N)Nc2cccc(OC(F)(F)F)c2F)N=C1c1ccc(Cl)c(Cl)c1 (single isomer, unassigned) [Example 12.2]
5. CCN(C(=O)[C@H](C)N)C1CN(/C(=N\C#N)Nc2cccc(OC(F)F)c2)N=C1c1ccc(Cl)c(C)c1 (single isomer, unassigned) [Example 34.1]

// result
1: 5.60; 2: 5.58; 3: 6.80; 4: 7.27; 5: 4.81

Batch request: pIC50 per item, same order as input.
1. CCN(C(=O)CO)C1CN(/C(=N\C#N)Nc2cccc(OC(F)(F)F)c2F)N=C1c1ccc(Cl)c(Cl)c1 (racemic) [Example 12]
2. CCN(C(=O)CO)C1CN(/C(=N\C#N)Nc2ccc(F)c(OC(F)(F)F)c2)N=C1c1ccc(Cl)c(Cl)c1 (racemic)
3. CCN(C(=O)[C@H](N)CC(C)C)C1CN(/C(=N\C#N)Nc2cccc(OC(F)(F)F)c2)N=C1c1ccc(Cl)c(Cl)c1 (stereo partly shown)
4. CCN(C(=O)[C@H](N)C(C)C)C1CN(/C(=N\C#N)Nc2cccc(OC(F)F)c2)N=C1c1ccc(Cl)c(Cl)c1 (stereo partly shown)
5. CCN(C(=O)CO)C1CN(/C(=N\C#N)Nc2ccc(F)c(OC(F)F)c2)N=C1c1ccc(Cl)c(Cl)c1 (racemic)

// result
[6.86, 6.83, 5.62, 7.13, 7.19]

====

What IC50 was measured for each of the following?
targetDesc: SMYD2 (Homo sapiens (Human), UniProt Q9NRG4)
assaySummary: Scintillation Proximity Assay (SPA) for detection of SMYD2 enzymatic inhibition
Type: biochemical
conditionDescription: methylation of biotinylated p53 Peptide, 3H-SAM, full length SMYD2; read-out: IC50 [mol/l] (SPA Assay)

| compound | result |
| --- | --- |
| CCN(C(=O)CO)C1CN(/C(=N\C#N)Nc2cc(OC(F)(F)F)ccc2OC)N=C1c1ccc(Cl)c(Cl)c1 (racemic) | 0.0306 µM |
| CCN(C(=O)CO)C1CN(/C(=N\C#N)Nc2cc(C(F)(F)F)ccc2OC(F)(F)F)N=C1c1ccc(Cl)c(Cl)c1 (racemic) | 0.14 µM |
| CCN(C(=O)[C@H](N)C(C)C)C1CN(/C(=N\C#N)Nc2cccc(OC(F)(F)F)c2F)N=C1c1ccc(Cl)c(Cl)c1 (some centres unmarked) | 0.418 µM |
| CCN(C(=O)CO)C1CN(/C(=N\C#N)Nc2cc(F)cc(OC(F)F)c2)N=C1c1ccc(Cl)c(Cl)c1 (single isomer, unassigned) [Example 24.2] | 0.0192 µM |
| CN(C(=O)CO)C1CN(/C(=N\C#N)Nc2cccc(OC(F)F)c2)N=C1c1ccc(Cl)c(Cl)c1 (racemic) | 0.0833 µM |

Items follow; give IC50 for each.
1. CCN(C(=O)CO)C1CN(/C(=N\C#N)Nc2cccc(OC(F)F)c2F)N=C1c1ccc(Cl)c(Cl)c1 (racemic)
2. CCN(C(=O)CO)C1CN(/C(=N\C#N)Nc2ccc(Cl)c(OC(F)F)c2)N=C1c1ccc(Cl)c(Cl)c1 (racemic) [Example 11]
3. CCN(C(=O)CO)C1CN(/C(=N\C#N)Nc2cc(C(F)(F)F)ccc2OCCN2CCCC2)N=C1c1ccc(Cl)c(Cl)c1 (racemic)
4. C[C@H](O)C(=O)NC1CN(/C(=N\C#N)Nc2cccc(OC(F)F)c2)N=C1c1ccc(Cl)c(Cl)c1 (mixture of isomers)
5. CCN(C(=O)[C@H](C)N)C1CN(/C(=N\C#N)Nc2cccc(OC(F)F)c2)N=C1c1ccc(Cl)c(C)c1 (single isomer, unassigned) [Example 34.2]
6. CCN(C(=O)CO)C1CN(/C(=N\C#N)Nc2ccc(Cl)c(OC(F)F)c2)N=C1c1ccc(Cl)c(Cl)c1 (single isomer, unassigned) [Example 11.1]

// result
1: 0.0674 µM; 2: 0.144 µM; 3: 0.0158 µM; 4: 0.518 µM; 5: 0.488 µM; 6: 0.0441 µM
